biological target: T1, AAV5 (adeno-associated virus serotype 5); assay: SPR, AAV on CM5 chip;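 further: surface plasmon resonance with AAV amine-coupled to the chip as ligand, nanobodies injected as analyte over a concentration series, rate constants and affinity fitted from binding curves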
T1 construct: also called adeno-associated virus serotype 5
Measurement Type: koff (s⁻¹)
Kindly answer with a numeric value in s⁻¹, unit omitted.

INSERT INTO assay_data (binder, measurement_type, unit_abbreviation, observed_measurement) VALUES
  ('A4-113 (VHH) VHH: VQLQESGGGLVQTGGSLRLSCVASGSRFSINTVGWYRQAPGKQRELVATVTRGGSTWYAGSVKGRFTISRDNTKNTIYLQMNSLRPEDTAVYYCHVDEIRQSTWTTSNLWGQGTQVTVSS', 'koff', 's⁻¹', 0.00145),
  ('A4-114 (VHH) VHH: VQLQESGGGLVQTGGSLRLSCVASGSIFSINTVGWYRQAPGKQRELVATVTRAGSTWYAGSVKGRFTISRDNTKNTIYLQMNSLRPEDTAVYYCHVDELRQSTWTTSNLWGQGTQVTVSS', 'koff', 's⁻¹', 0.0011),
  ('A4-105 (VHH) VHH: VQLQESGGGLVQPGGSLRLSCAASGSIFSLNAMGWYRQAPGKQRELVATITSGGSTNYADSVKGRFTISRDNAKNTAYLQMNNLQPEDTAVYYCHVDEVRESIWTTSNLWGQGTQVTVSS', 'koff', 's⁻¹', 0.00139),
  ('A4-106 (VHH) VHH: VQLQESGGGLVQPGGSLRLSCIASGSIFSLNAMGWYRQAPGKQRELVATITSGGSTNYADSVKGRFTISRDNAKNTAYLQMNNLQPEDTAVYYCHVDEVRESIWTTSNLWGQGTQVTVSS', 'koff', 's⁻¹', 0.00042),
  ('A4-103 (VHH) VHH: VQLQESGGGLVQPGGSLRLSCAASGSIFSLNAMGWYRQAPGKQRELVATITRGGSTNYADSVKGRFTISRDNAKNTVYLQMNSLRPEDTAVYYCHVDEVRESIWTTSNLWGQGTQVTVSS', 'koff', 's⁻¹', 0.00137),
  ('A4-110 (VHH) VHH: VQLQESGGGLVQPGGSLRLSCFASGTNFSINVVGWYRQAPGKQRELVATITRGGSTNYAESVKGRFTISRDNAKNTVYLQMNNLRPEDTAVYYCHLDEVRDSSWTTSNLWGQGTQVTVSS', 'koff', 's⁻¹', 0.00035),
  ('A4-109 (VHH) VHH: VQLQESGGGLVQAGGSLRLSCAASGTIFSLNVMGWYRQAPGKQRELVASVTRGGNTNYADSVKGRFTISRDNAKTTVYLQMNSLRPEDTAVYYCHVDELRDSTWTTSNLWGQGTQVTVSS', 'koff', 's⁻¹', 0.00022),
  ('A4-108 (VHH) VHH: VQLQESGGGLAQPGGSLRLSCLASGSGFSINTMGWYRQAPPKWRELVATVTRGGSTNYAGSVKGRFTISRDNPKNTVYLQMNSLRPEDTAVYYCHLDEVRQSTWTTSNIWGQGTQVTVSS', 'koff', 's⁻¹', 0.00105);

### Prompt Record request: koff value, item A4-111 (VHH) VHH: VQLQESGGGLAQPGGSLRLSCAASGSNFSINTMGWYRQRAGKQREFVATITRGGSTNYGDSVKGRFTISRDNAKTTVYLQMNSLRPEDTAVYYCHLDEVRESTWTTSNLWGQGTQVTVSS
### Response 9e-05

### Prompt Same read-out for A4-102 (VHH) VHH: VQLQESGGGLVQPGGSLRLSCAASGSHFTINSVGWYRQAPGKQRELVAPVTRGGTTNYADFVKGRFTISRDNAKNTVYLQMNSLRPEDTAVYYCHVDELRDSSWTTSNLWGQGTQVTVSS ?
### Response 0.007
